- System: STING activation (IFNβ release) in iBMDMs
- method.description: IFNβ release ELISA after STING ligand (or LPS) stimulation, iBMDMs
- Type: cell-based, mouse
- applied.conditions: iBMDMs; 3′3′-cGAMP 10 μg/ml, 16 hours; compound 10 μM
measured.property: fold increase in IFN-β release
Record the result as number plus unit.

Below, each entry is followed by its recorded fold increase in IFN-β release result.
N#Cc1c(NC(=O)c2cccc3ccccc23)sc2c1CCCC2 [JNK Inhibitor IX] | 0.53 fold
OCCn1cc(-c2cnc3nnn(Cc4ccc5ncccc5c4)c3n2)cn1 [PF-04217903] | 1.49 fold
Cc1cnc(NC(=O)Nc2cc(Br)c(C)cc2OC[C@@H]2CNCCO2)cn1 [LY2603618] | 1.08 fold
O=C(O)c1cc(I)ccc1NC(=O)[C@H](Cc1ccccc1)NCc1ccccc1 [CW069] | 4.03 fold
CCc1nc(N)nc(N)c1-c1ccc(Cl)cc1 [Pyrimethamine] | 5.22 fold
O=C(NC(Cc1cc(=O)[nH]c2ccccc12)C(=O)O)c1ccc(Cl)cc1 (centres unmarked) [Rebamipide] | 2.54 fold

Proceed to the following item.
Query :: Entry under review: CC(=O)OCOC(=O)CN(CC(=O)OCOC(C)=O)c1ccccc1OCCOc1ccccc1N(CC(=O)OCOC(C)=O)CC(=O)OCOC(C)=O [BAPTA-AM] . Reported fold increase in IFN-β release?
Result :: 0.52 fold

---

- Test system: STING activation (IFNβ release) in iBMDMs
- method.description: IFNβ release ELISA after STING ligand (or LPS) stimulation, iBMDMs
- Format: cell-based, mouse
- applied.conditions: iBMDMs; 3′3′-cGAMP 10 μg/ml, 16 hours; compound 10 μM
fold increase in IFN-β release values, listed per item
Entry rule: numbers only, all in fold.

Example molecules with recorded fold increase in IFN-β release:
CCOC(=O)NCCCC(=O)NCCc1ccccc1 [Santacruzamate A (CAY10683), Santacruzamate A] | 1.18
CC(C)n1c(/C=C/C(O)CC(O)CC(=O)O)c(-c2ccc(F)cc2)c2ccccc21 (stereo not shown) [Fluvastatin Sodium] | 0.32
O=C(/C=C/c1ccc(O)c(O)c1)OCCc1ccccc1 | 0.44

Query :: Notebook entry, STING activation (IFNβ release) in iBMDMs assay: fold increase in IFN-β release of "N#CC[C@H](C1CCCC1)n1cc(-c2ncnc3[nH]ccc23)cn1" = ?
Result :: 0.20

---

- Tested on: STING activation (IFNβ release) in iBMDMs
- method.description: IFNβ release ELISA after STING ligand (or LPS) stimulation, iBMDMs
- Type: cell-based, mouse
- applied.conditions: iBMDMs; 3′3′-cGAMP 10 μg/ml, 16 hours; compound 10 μM
Counter-ions that a name gives are not always drawn.
measured.property: fold increase in IFN-β release (fold)
Give the quantity in fold, number only.

Observe how each entry below is paired with its result.
Cc1ccc(C(=O)N(CCCN)[C@@H](c2oc3cc(Cl)ccc3c(=O)c2Cc2ccccc2)C(C)C)cc1 | 1.16
C=CC(=O)Nc1cccc(Nc2nc(Nc3ccc(OCCOC)cc3)ncc2F)c1 | 0.16
CNC(=O)[C@H](Cc1ccccc1)NC(=O)[C@H](CC(C)C)[C@H](CSc1cccs1)C(=O)NO | 1.20
C#CCN[C@@H]1CCc2ccccc21 [Rasagiline Mesylate] | 1.77
O=C1NC(=O)/C(=C/c2ccc(-c3ccc(F)cc3O)o2)S1 | 6.84
Oc1c2ccccc2c2c3c(cccc13)N=N2 | 3.35
CN(C)C(=O)[C@H](O)[C@H](Cc1ccccc1)NC(=O)c1cc2cc(Cl)ccc2[nH]1 | 0.14

Note: attention shifts to another entry.
Query :: # query: fold increase in IFN-β release of entry "FC(F)(F)c1ccc(/C=C/c2nc(COc3ccc(CCCCn4ccnn4)cc3)co2)cc1"
Result :: 0.56

---

- System: STING activation (IFNβ release) in iBMDMs
- method.description: IFNβ release ELISA after STING ligand (or LPS) stimulation, iBMDMs
- Type: cell-based, mouse
- applied.conditions: iBMDMs; 3′3′-cGAMP 10 μg/ml, 16 hours; compound 10 μM
Assign 1 whenever fold increase in IFN-β release does not fall below 1 fold; assign -1 whenever it does.

Consider the following illustrative entries.
COCCOc1ccc2c(c1)ncn2-c1ccc2cccc(N3CCC(N)CC3)c2n1 | -1
O=C(Nc1nc2cccc(-c3ccc(CN4CCS(=O)(=O)CC4)cc3)n2n1)C1CC1 | 1
CCN(CC)CCCC(C)Nc1nc(C)cc(Nc2ccc3nc(C)cc(N)c3c2)n1 (centres unmarked) | 1

Next up:
Query :: Can "C[C@@H]1COCCN1c1cc(C2(S(C)(=O)=O)CC2)nc(-c2cccc3[nH]ccc23)n1" be said to have fold increase in IFN-β release at or above 1 fold?
Result :: -1

---

- System: STING activation (IFNβ release) in iBMDMs
- method.description: IFNβ release ELISA after STING ligand (or LPS) stimulation, iBMDMs
- Format: cell-based, mouse
- applied.conditions: iBMDMs; 3′3′-cGAMP 10 μg/ml, 16 hours; compound 10 μM
Structures can show the parent of a compound that is named as a salt.
fold increase in IFN-β release less than 1 fold is met; fold increase in IFN-β release greater than or equal to 1 fold is not met.

Query :: Regarding Cc1ccccc1C(C(=O)NC1CCCCC1)N(C(=O)Cn1ccnc1C)c1cccc(F)c1 (stereo not drawn) , kindly confirm whether its fold increase in IFN-β release is beneath 1 fold.
Result :: not met

Query :: How about this compound: "CCn1c(N)c(C(=O)NC)c(=O)c2ccc(C#C[C@@](C)(O)COC)nc21"
Result :: not met

Query :: Next compound up: CC(CCc1ccccc1)NCC(O)c1ccc(O)c(C(N)=O)c1 (stereo not drawn) [Labetalol HCl]
Result :: not met

---

Form field: fold increase in IFN-β release (one value per entry).
- Test system: STING activation (IFNβ release) in iBMDMs
- method.description: IFNβ release ELISA after STING ligand (or LPS) stimulation, iBMDMs
- Assay type: cell-based, mouse
- applied.conditions: iBMDMs; 3′3′-cGAMP 10 μg/ml, 16 hours; compound 10 μM
Counter-ions that a name gives are not always drawn.
Enter your answer as a number in fold; do not include the unit.

Query :: Kindly state the measured fold increase in IFN-β release obtained for Cl.Cl.O=S(=O)(NCCNC/C=C/c1ccc(Br)cc1)c1cccc2cnccc12 [H 89 2HCl] with STING activation (IFNβ release) in iBMDMs.
Result :: 1.91

Query :: Same question for "CNC(=O)c1ccccc1Nc1nc(Nc2ccc(N3CCOCC3)cc2OC)ncc1Cl" please.
Result :: 1.50

Query :: Query "Cc1ccc([C@@H]2O[C@H](CO)[C@@H](O)[C@H](O)[C@H]2O)cc1Cc1ccc(-c2ccc(F)cc2)s1" next
Result :: 1.58

Query :: And for COc1cc(Nc2c(C#N)cnc3cc(OCCCN4CCN(C)CC4)c(OC)cc23)c(Cl)cc1Cl [Bosutinib (SKI-606), Bosutinib] ?
Result :: 1.78

Query :: Then "O=C(NC[C@H]1CN(c2ccc(N3CCOCC3=O)cc2)C(=O)O1)c1ccc(Cl)s1" ?
Result :: 0.54

Query :: Same question for "O=c1[nH]c2ccc(Cl)cc2c(N[C@@H]2CN3CCC2CC3)c1-c1nc2ccccc2[nH]1" please.
Result :: 1.30

Query :: Param item: COc1cccc2c1C(=O)c1c(O)c3c(c(O)c1C2=O)C[C@@](O)(C(C)=O)C[C@@H]3O[C@H]1C[C@H](N)[C@H](O)[C@H](C)O1 [Daunorubicin HCl]
Result :: 0.11

---

// fold increase in IFN-β release lookup, one value per entry
- System: STING activation (IFNβ release) in iBMDMs
- method.description: IFNβ release ELISA after STING ligand (or LPS) stimulation, iBMDMs
- Assay type: cell-based, mouse
- applied.conditions: iBMDMs; 3′3′-cGAMP 10 μg/ml, 16 hours; compound 10 μM
I only need the number, in fold, no unit after it.

Query :: Requested field: fold increase in IFN-β release. Item: "O=C(CCCCCCC(=O)Nc1ccc([C@H]2O[C@@H](CSc3nc(-c4ccccc4)c(-c4ccccc4)o3)C[C@@H](c3ccc(CO)cc3)O2)cc1)NO"
Result :: 1.05

Query :: Also need CNC(=O)c1ccc(N2C(=S)N(c3ccc(C#N)c(C(F)(F)F)c3)C(=O)C2(C)C)cc1F [Enzalutamide (MDV3100), Enzalutamide] , thanks.
Result :: 0.50

Query :: Continue with "C[C@]1(O)C[C@@H](c2nc(-c3ccc4ccc(-c5ccccc5)nc4c3)c3c(N)nccn32)C1"
Result :: 0.66

Query :: Quick one: O=C(NC(NC(=S)Nc1ccc(F)c([N+](=O)[O-])c1)C(Cl)(Cl)Cl)C(c1ccccc1)c1ccccc1 (stereo not shown)
Result :: 2.50

Query :: Moving on to the next compound: "O=C(O)c1ccc(Nc2ncc3c(n2)-c2ccc(Cl)cc2C(c2c(F)cccc2F)=NC3)cc1"
Result :: 0.77

Query :: Quick one: "O=c1cc(-c2cccc3c2Sc2ccccc2S3)oc(N2CCOCC2)c1"
Result :: 0.33

Query :: Queued: "C=CC(=O)Nc1cc(Nc2nccc(-c3cn(C)c4ccccc34)n2)c(OC)cc1N(C)CCN(C)C"
Result :: 0.85
